Target: T1, human interleukin 13 receptor subunit alpha 2 (IL-13RA2) (human, UniProt Q14627 27-380)
T1 construct: whole, on cells; also called IL-13Rα2; CD213A2
T1 sequence (looked up): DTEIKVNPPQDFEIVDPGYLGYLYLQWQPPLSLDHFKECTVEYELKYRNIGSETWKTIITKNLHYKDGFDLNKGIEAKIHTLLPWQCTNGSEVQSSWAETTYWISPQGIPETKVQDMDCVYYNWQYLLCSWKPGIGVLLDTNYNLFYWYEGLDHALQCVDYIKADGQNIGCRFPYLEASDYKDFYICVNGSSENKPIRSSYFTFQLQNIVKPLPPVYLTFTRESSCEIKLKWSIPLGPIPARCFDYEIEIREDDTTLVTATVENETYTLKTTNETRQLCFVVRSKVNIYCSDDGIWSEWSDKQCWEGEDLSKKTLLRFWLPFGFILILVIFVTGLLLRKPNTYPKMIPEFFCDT
Assay: FACS on A375 cells
In this section we review reported Top (MFI) values for a set of binders.
observable: Top (MFI)

INSERT INTO assay_data (binder, observable, result) VALUES
  ('xi54A4F7 hIgG1 (antibody, V domains shown) VH: EVKLVESGGGLVKPGGSLKLSCAASGFTFSSYGMSWVRQTPEKRLEWVATISGGGSYTYYPDSVKGRFTISRDNAKNNLYLQMSSLRSEDTALYYCARRDLRSAMDHWGQGTSVTVSS VL: DIVMTQSQKFMSTSVGDRVSVTCRASQNVDINVAWYQQKPGQSPKSLIYSASYRYSGVPDRFTGSGSGTDFTLTISNVQSEDLAEYFCQQYNSYPLTFGGGTKLEIR', 'Top (MFI)', '18000 MFI'),
  ('xi34A5G9 hIgG1 (antibody, V domains shown) VH: EVHLQQSGPELVKPGASVKISCKTSGYTFTEYTMHWVKQSHGKSLEWIGRINPNNGIAEYKQTFKDKATLAVDKSSSTAYMEFRSLTSEDSAVYYCARGEGYGYWFAYWGQGTLVTVSA VL: DIQMTQSPASLSASVGETVTITCRTSDNIYSYLAWYQQRQGKSPQLLVSNARTLAEGVPSRFSGSGSGTQFSLKINSLQPEDFGIYYCQHHSGTPFTFGSGTNLEIE', 'Top (MFI)', '16700 MFI'),
  ('xi73A11E2 hIgG1 (antibody, V domains shown) VH: EVKLVESGGGLVKPGGSLKLSCAASGFTFSSYGMSWVRQTPEKRLEWVATISGGGSYTYYPDSVKGRFTISRDNARNNLYLQMNSLRSEDTALYYCARRDLRSAMDYWGQGTSVTVSS VL: DIVMTQSQKFMSTSVGDRVSVTCKASQNVDINVAWYQQKPGQSPKALIYSASYRYSGVPDRFTGSGSGTDFTLTISNVQSEDLAEFFCQQYNSYPLTFGGGTKLEIK', 'Top (MFI)', '18000 MFI');
